pIC50: −log10 of the molar value.
Field: pIC50. System: Epidermal growth factor receptor (Homo sapiens). Provenance: assorted publications.
# if value of pIC50 reaches 8, tag yes (1); if it stays below, tag no (0)

> print(dat)
                                    molecule                               test.target  assigned.category
 1  CCc1cc(Nc2ncc(Br)c(Nc3ccc(-c4cccc5cc[nH]c45)cc3P(C)(C)=O)n2)c(OC)cc1N1CCC(N2CCN(C)CC2)CC1  Epidermal growth factor receptor (Homo sapiens)             no (0)
 2  CCOc1nn(CCO)c2c1/C=C/c1n[nH]c3cc(F)c(cc13)-c1c(C)nn(C)c1O[C@@H](C)CN(C(C)C)C2  Epidermal growth factor receptor (Homo sapiens)             no (0)
 3  COc1cc(N(C)CCN(C)C)ccc1Nc1ncc(Cl)c(-c2cn(Cc3cccc(O)c3C=O)c3ccccc23)n1  Epidermal growth factor receptor (Homo sapiens)             no (0)
 4  CCc1cc(Nc2ncc(Br)c(Nc3ccc(-n4cccn4)cc3P(C)(C)=O)n2)c(OC)cc1N1CCC(N2CCN(C)CC2)CC1  Epidermal growth factor receptor (Homo sapiens)             no (0)
 5  CCc1cc(Nc2ncc(Cl)c(Nc3cccc4c3N(S(C)(=O)=O)CC4)n2)c(OC)cc1N1CCC(N2CCN(C)CC2)CC1  Epidermal growth factor receptor (Homo sapiens)            yes (1)
 6  Cc1c2c(nn1C[C@H](C)O)CN(C)C[C@H](C)Oc1c(cnn1C)-c1ccc3[nH]nc(c3c1)/C=C/2  Epidermal growth factor receptor (Homo sapiens)             no (0)
 7  COc1ccc(S(=O)(=O)Nc2cccc(-c3nc(C(C)C)sc3-c3ccnc(Nc4ccc(N5CCOCC5)nc4)n3)c2)cc1OC  Epidermal growth factor receptor (Homo sapiens)             no (0)
 8  CN1CCN(C2CCN(c3ccc(Nc4ncc(Cl)c(Nc5cccc6c5N(S(C)(=O)=O)CC6)n4)c4c3CCO4)CC2)CC1  Epidermal growth factor receptor (Homo sapiens)            yes (1)
 9  CN(C)C/C=C/C(=O)N(C)c1cccc(Nc2cc(Nc3ccc(Oc4ccccc4)cc3)ncn2)n1  Epidermal growth factor receptor (Homo sapiens)            yes (1)
10  Cc1ccc(Nc2ncc(Br)c(Nc3ccc4ccccc4c3)n2)cc1NC(=O)/C=C/CN(C)C  Epidermal growth factor receptor (Homo sapiens)             no (0)
11  CCCN1CCN(C2CCN(c3ccc(Nc4nc(Nc5ccccc5N(C)S(C)(=O)=O)c5cc[nH]c5n4)cc3F)CC2)CC1  Epidermal growth factor receptor (Homo sapiens)             no (0)
12  CC(C)(O)Cn1/c(=N/C(=O)c2ccnc(C#Cc3cccc(C=O)c3O)c2)[nH]c2ccccc21  Epidermal growth factor receptor (Homo sapiens)             no (0)
13  NS(=O)(=O)c1ccc(Nc2nc3ncnc(Nc4cc(Cl)cc(Cl)c4)c3s2)cc1  Epidermal growth factor receptor (Homo sapiens)             no (0)
14  CCc1cc(Nc2ncc(Br)c(Nc3ccc(-c4ccc(C)nn4)cc3P(C)(C)=O)n2)c(OC)cc1N1CCC(N2CCN(C)CC2)CC1  Epidermal growth factor receptor (Homo sapiens)             no (0)
15  C[C@@H](C#N)Oc1nn(CCO)c2c1/C=C/c1n[nH]c3cc(F)c(cc13)-c1cnn(C)c1O[C@@H](C)CN(C)C2  Epidermal growth factor receptor (Homo sapiens)             no (0)
16  C[C@H]1CN(C)Cc2c(c(OC3CC(S(C)(=O)=O)C3)nn2C)/C=C/c2n[nH]c3ccc(cc23)-c2cnn(C)c2O1 (stereo partly shown)  Epidermal growth factor receptor (Homo sapiens)             no (0)
